All values here come from ChEMBL document CHEMBL1133529.

- target or test system: Acetylcholine receptor; alpha1/beta1/delta/gamma (Homo sapiens, UniProt P02708+P07510+P11230+Q07001)
- Sequence (P02708 whole entry): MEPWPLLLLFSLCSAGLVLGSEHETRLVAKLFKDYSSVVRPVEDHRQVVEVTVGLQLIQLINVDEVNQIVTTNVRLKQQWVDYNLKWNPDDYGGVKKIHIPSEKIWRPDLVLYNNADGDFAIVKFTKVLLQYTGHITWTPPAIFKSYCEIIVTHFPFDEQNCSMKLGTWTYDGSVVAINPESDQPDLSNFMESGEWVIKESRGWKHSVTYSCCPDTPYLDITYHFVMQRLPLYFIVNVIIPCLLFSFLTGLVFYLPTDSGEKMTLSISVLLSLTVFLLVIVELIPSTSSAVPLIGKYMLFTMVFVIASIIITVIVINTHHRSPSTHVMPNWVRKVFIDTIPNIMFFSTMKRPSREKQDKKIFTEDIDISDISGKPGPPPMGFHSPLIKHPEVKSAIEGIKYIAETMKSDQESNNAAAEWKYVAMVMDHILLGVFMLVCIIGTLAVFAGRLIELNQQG
- Sequence (P07510 whole entry): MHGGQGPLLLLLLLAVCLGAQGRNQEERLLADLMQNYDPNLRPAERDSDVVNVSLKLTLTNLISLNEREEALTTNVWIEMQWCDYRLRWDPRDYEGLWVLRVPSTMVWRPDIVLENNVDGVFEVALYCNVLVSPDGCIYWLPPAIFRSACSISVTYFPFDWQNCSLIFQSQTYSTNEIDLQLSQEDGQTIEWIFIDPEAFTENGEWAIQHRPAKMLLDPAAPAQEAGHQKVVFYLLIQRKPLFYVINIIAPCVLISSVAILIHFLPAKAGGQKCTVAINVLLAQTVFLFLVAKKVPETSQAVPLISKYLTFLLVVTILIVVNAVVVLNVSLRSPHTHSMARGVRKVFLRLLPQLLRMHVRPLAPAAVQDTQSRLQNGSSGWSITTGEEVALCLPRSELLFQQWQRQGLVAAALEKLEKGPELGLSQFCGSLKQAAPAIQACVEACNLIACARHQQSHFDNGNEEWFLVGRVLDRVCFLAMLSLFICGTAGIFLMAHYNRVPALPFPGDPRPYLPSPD
- Sequence (P11230 whole entry): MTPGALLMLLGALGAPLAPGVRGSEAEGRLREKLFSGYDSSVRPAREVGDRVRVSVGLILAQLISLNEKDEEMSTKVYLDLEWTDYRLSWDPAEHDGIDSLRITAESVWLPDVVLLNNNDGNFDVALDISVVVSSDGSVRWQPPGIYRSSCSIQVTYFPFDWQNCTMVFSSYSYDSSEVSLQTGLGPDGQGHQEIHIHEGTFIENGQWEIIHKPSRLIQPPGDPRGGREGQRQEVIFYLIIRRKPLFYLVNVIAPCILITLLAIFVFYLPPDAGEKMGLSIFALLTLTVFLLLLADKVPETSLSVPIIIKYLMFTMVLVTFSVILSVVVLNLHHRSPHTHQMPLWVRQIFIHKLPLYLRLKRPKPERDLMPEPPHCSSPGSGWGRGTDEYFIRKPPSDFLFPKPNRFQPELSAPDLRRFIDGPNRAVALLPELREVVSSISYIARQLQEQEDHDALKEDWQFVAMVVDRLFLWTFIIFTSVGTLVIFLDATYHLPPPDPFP
- Sequence (Q07001 whole entry): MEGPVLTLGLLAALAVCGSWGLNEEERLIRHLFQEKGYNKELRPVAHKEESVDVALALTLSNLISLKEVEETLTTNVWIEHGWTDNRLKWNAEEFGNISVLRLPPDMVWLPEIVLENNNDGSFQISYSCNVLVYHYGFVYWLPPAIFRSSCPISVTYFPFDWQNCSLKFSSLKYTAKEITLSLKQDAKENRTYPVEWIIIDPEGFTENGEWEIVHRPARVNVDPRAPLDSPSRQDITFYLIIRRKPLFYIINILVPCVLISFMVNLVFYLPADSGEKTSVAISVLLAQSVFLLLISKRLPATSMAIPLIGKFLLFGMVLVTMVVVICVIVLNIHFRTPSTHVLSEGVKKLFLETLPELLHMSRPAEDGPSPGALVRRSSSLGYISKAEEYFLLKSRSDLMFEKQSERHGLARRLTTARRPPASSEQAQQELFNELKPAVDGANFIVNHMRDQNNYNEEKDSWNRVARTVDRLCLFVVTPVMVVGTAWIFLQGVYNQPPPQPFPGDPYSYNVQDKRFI
- experiment description: Antagonist activity at human muscle-type nAChR (embryonic muscle) expressed in TE671 cells; (end value).
- Type: functional, cell-based, TE-671
pIC50: −log10 of the molar value.
Decide by pIC50: equal to or exceeding 5 means yes (1), less means no (0).

Task: hey, is pIC50 for this one >= 5? `NCCCNCCCCNCCCNC(=O)[C@H](Cc1cccc(O)c1)NC(=O)CC1CCCCC1`
Output: yes (1)

Task: Queued: `NCCCNCCCCNCCCNC(=O)[C@H](Cc1ccc(O)cc1)NC(=O)Cc1ccccc1`
Output: no (0)

Task: Now the molecule `NCCCCCCCCCCCCNC(=O)[C@H](Cc1ccc(O)cc1)NC(=O)CC1CCCCC1`
Output: no (0)

Task: Now the same for `CCCC(=O)N[C@@H](Cc1cccc(O)c1)C(=O)NCCCNCCCCNCCCN`
Output: no (0)

Task: How about `NCCCOCCCCOCCCNC(=O)[C@H](Cc1cccc(O)c1)NC(=O)CC1CCCCC1` ?
Output: yes (1)

---

- target or test system: Acetylcholine receptor; alpha1/beta1/delta/gamma (Homo sapiens, UniProt P02708+P07510+P11230+Q07001)
- experiment description: Antagonist activity at human muscle-type nAChR (embryonic muscle) expressed in TE671 cells; (end value).
- Format: functional, cell-based, TE-671
Exercise: state measured log10 of IC50 for each of the molecules provided.
In plain terms, each number is the log10 of measured IC50 in µM.

Task: What measured log10 of IC50 goes with `NCCCCCCCCCCCCNC(=O)[C@H](Cc1cccc(O)c1)NC(=O)Cc1ccccc1` ?
Output: 0.91

Task: Also check `CCCC(=O)N[C@@H](Cc1cccc(O)c1)C(=O)NCCCCCCCCCCCCN`
Output: 0.39

Task: For `NCCCOCCCCOCCCNC(=O)[C@H](Cc1ccc(O)cc1)NC(=O)Cc1ccccc1` then?
Output: 1.10

Task: Also `NCCCOCCCCOCCCNC(=O)[C@H](Cc1cccc(O)c1)NC(=O)Cc1ccccc1` ?
Output: 1.40

Task: `NCCCOCCCCOCCCNC(=O)[C@H](Cc1ccc(O)cc1)NC(=O)CC1CCCCC1` ?
Output: 0.76

Task: Follow-up entry: `NCCCNCCCCNCCCNC(=O)[C@H](Cc1cccc(O)c1)NC(=O)Cc1ccccc1`
Output: 1.00

Task: Record: `CCCC(=O)N[C@@H](Cc1ccc(O)cc1)C(=O)NCCCOCCCCOCCCN`
Output: 1.04

Task: Another: `CCCC(=O)N[C@@H](Cc1ccc(O)cc1)C(=O)NCCCCCCCCCCCCN`
Output: -0.10

Task: Okay, and `NCCCCCCCCCCCCNC(=O)[C@H](Cc1ccc(O)cc1)NC(=O)Cc1ccccc1` ?
Output: 1.24

Task: What do you have for `CCCC(=O)N[C@@H](Cc1cccc(O)c1)C(=O)NCCCOCCCCOCCCN` ?
Output: 1.63

---

Field: pIC50. Provide a value for each of the compounds that follow.
- target or test system: Acetylcholine receptor; alpha1/beta1/delta/gamma (Homo sapiens, UniProt P02708+P07510+P11230+Q07001)
- experiment description: Antagonist activity at human muscle-type nAChR (embryonic muscle) expressed in TE671 cells; (peak value).
- Assay type: functional, cell-based, TE-671
// pIC50 here means minus log10 of the molar concentration (mol/L)

Task: What does the data say about its pIC50? Entry: `NCCCNCCCCNCCCNC(=O)[C@H](Cc1ccc(O)cc1)NC(=O)CC1CCCCC1`
Output: 4.06

Task: What do you get for `CCCC(=O)N[C@@H](Cc1cccc(O)c1)C(=O)NCCCOCCCCOCCCN` ?
Output: 3.96

Task: Repeat for the following compound: `NCCCOCCCCOCCCNC(=O)[C@H](Cc1ccc(O)cc1)NC(=O)Cc1ccccc1`
Output: 4.46

Task: Also `CCCC(=O)N[C@@H](Cc1ccc(O)cc1)C(=O)NCCCCCCCCCCCCN` , if possible.
Output: 4.82

Task: Input `NCCCNCCCCNCCCNC(=O)[C@H](Cc1ccc(O)cc1)NC(=O)Cc1ccccc1`
Output: 3.60

Task: What about `NCCCOCCCCOCCCNC(=O)[C@H](Cc1cccc(O)c1)NC(=O)CC1CCCCC1` ?
Output: 4.51

Task: Repeat for the following compound: `CCCC(=O)N[C@@H](Cc1ccc(O)cc1)C(=O)NCCCOCCCCOCCCN`
Output: 4.14

Task: Record: `CCCC(=O)N[C@@H](Cc1ccc(O)cc1)C(=O)NCCCNCCCCNCCCN`
Output: 4.25

Task: Next up: `NCCCNCCCCNCCCNC(=O)[C@H](Cc1cccc(O)c1)NC(=O)CC1CCCCC1`
Output: 4.22

Task: Input `NCCCCCCCCCCCCNC(=O)[C@H](Cc1ccc(O)cc1)NC(=O)Cc1ccccc1`
Output: 3.41

Task: Consider next the compound `NCCCCCCCCCCCCNC(=O)[C@H](Cc1cccc(O)c1)NC(=O)Cc1ccccc1` in the same way.
Output: 3.98

Task: Check `NCCCOCCCCOCCCNC(=O)[C@H](Cc1ccc(O)cc1)NC(=O)CC1CCCCC1` too.
Output: 4.59

Task: Another: `CCCC(=O)N[C@@H](Cc1cccc(O)c1)C(=O)NCCCCCCCCCCCCN`
Output: 3.98

Task: Also `NCCCOCCCCOCCCNC(=O)[C@H](Cc1cccc(O)c1)NC(=O)Cc1ccccc1` , if possible.
Output: 4.29

Task: Now this one: `NCCCNCCCCNCCCNC(=O)[C@H](Cc1cccc(O)c1)NC(=O)Cc1ccccc1`
Output: 4.01
